test: Oral bioavailability in dog at 1 mg/kg; format: ADME, organism-based, Canis lupus familiaris; conditions: in vivo
Collected bioavailability values appear next to each entry.

CC(C)CN(C[C@@H](O)[C@H](Cc1ccc(OCCc2cccs2)cc1)NC(=O)O[C@H]1CO[C@H]2OCC[C@H]21)S(=O)(=O)c1ccc2c(c1)OCO2 18%

Using the record for `Cc1nc(COc2ccc(C[C@H](NC(=O)O[C@H]3CO[C@H]4OCC[C@H]43)[C@H](O)CN(CC(C)C)S(=O)(=O)c3ccc4c(c3)OCO4)cc2)cs1` , report its bioavailability.
20%

* * *

tested on: MT4; test: Antiviral activity against HIV1 I54V in MT4 cells; format: functional, cell-based; conditions: Homo sapiens
MEASURE_NAME: pIC50
When answering, recall that pIC50 equals minus log10 of the concentration in mol/L, and write that number alone.

# query: pIC50 | item Cc1nc(COc2ccc(C[C@H](NC(=O)O[C@H]3CO[C@H]4OCC[C@H]43)[C@H](O)CN(CC(C)C)S(=O)(=O)c3ccc4c(c3)OCO4)cc2)cs1 [BRECANAVIR] | system: MT4
9.66

* * *

Collected IC50 values appear next to each entry.
tested on: MT4; assay: Antiviral activity against HIV D545701 in MT4 cells; assay type: functional, cell-based; conditions: Homo sapiens
Give just the number in µM; leave the unit off.

Worked cases, IC50 given:
SMILES_INPUT	UNIT_ABBREV	IC50
CC(C)CN(C[C@@H](O)[C@H](Cc1ccc(OCc2cccc(C#N)c2)cc1)NC(=O)O[C@H]1CO[C@H]2OCC[C@H]21)S(=O)(=O)c1ccc2c(c1)OCO2	µM	0.0022
CC(C)CN(C[C@@H](O)[C@H](Cc1ccc(OCCc2ccccc2)cc1)NC(=O)O[C@H]1CO[C@H]2OCC[C@H]21)S(=O)(=O)c1ccc2c(c1)OCO2	µM	0.025
CC(C)CN(C[C@@H](O)[C@H](Cc1ccc(OCc2ccccn2)cc1)NC(=O)O[C@H]1CO[C@H]2OCC[C@H]21)S(=O)(=O)c1ccc2c(c1)OCO2	µM	0.0045
CC(C)CN(C[C@@H](O)[C@H](Cc1ccc(OCc2ccc3ccccc3c2)cc1)NC(=O)O[C@H]1CO[C@H]2OCC[C@H]21)S(=O)(=O)c1ccc2c(c1)OCO2	µM	0.059
CC(C)CN(C[C@@H](O)[C@H](Cc1ccc(OCCc2cccs2)cc1)NC(=O)O[C@H]1CO[C@H]2OCC[C@H]21)S(=O)(=O)c1ccc2c(c1)OCO2	µM	0.011

Using the record for `CC(C)CN(C[C@@H](O)[C@H](Cc1ccc(OCc2ccccc2)cc1)NC(=O)O[C@H]1CO[C@H]2OCC[C@H]21)S(=O)(=O)c1ccc2c(c1)OCO2` , report its IC50.
0.0096

Next up: `CC(C)CN(C[C@@H](O)[C@H](Cc1ccc(Oc2ccncn2)cc1)NC(=O)O[C@H]1CO[C@H]2OCC[C@H]21)S(=O)(=O)c1ccc2c(c1)OCO2`
0.011

Next up: `CC(C)CN(C[C@@H](O)[C@H](Cc1ccc(Oc2ccc(F)cc2)cc1)NC(=O)O[C@H]1CO[C@H]2OCC[C@H]21)S(=O)(=O)c1ccc2c(c1)OCO2`
0.029

Next up: `COc1ccc(Oc2ccc(C[C@H](NC(=O)O[C@H]3CO[C@H]4OCC[C@H]43)[C@H](O)CN(CC(C)C)S(=O)(=O)c3ccc4c(c3)OCO4)cc2)cc1`
0.027

Next up: `CC(C)CN(C[C@@H](O)[C@H](Cc1ccc(OCCn2cncn2)cc1)NC(=O)O[C@H]1CO[C@H]2OCC[C@H]21)S(=O)(=O)c1ccc2c(c1)OCO2`
0.012

Cited source: ChEMBL document CHEMBL1146125
